# experiment: Equilibrium fluorescence titration with 2OG
# Assay type: binding
# assayConditions: 1 µM apoprotein, 25 °C; read-out: Dissociation constant Kd, 2OG
pKd: −log10 of the molar value.
assayMetric: pKd

{"molecule": "Y143F ALKBH3: ALKBH3 mutant, Tyr143 replaced with Phe (protein, UniProt Q96Q83 1-286, looked up, variant Y143F) Alpha-ketoglutarate-dependent …: MEEKRRRARVQGAWAAPVKSQAIAQPATTAKSHLHQKPGQTWKNKEHHLSDREFVFKEPQQVVRRAPEPRVIDREGVYEISLSPTGVSRVCLYPGFVDVKEADWILEQLCQDVPWKQRTGIREDITYQQPRLTAWYGELPYTFSRITMEPNPHWHPVLRTLKNRIEENTGHTFNSLLCNLYRNEKDSVDWHSDDEPSLGRCPIIASLSFGATRTFEMRKKPPPEENGDYTYVERVKIPLDHGTLLIMEGATQADWQHRVPKEYHSREPRVNLTFRTVYPDPRGAPW", "assayMetric": "pKd", "observedResult": 4.28}

Value source: paper PMC10816986
